test system: Amphora sp.; assay: Benthic diatom growth inhibition (chlorophyll-a); assay type: cell-based; details: 120 h; growth, 5 days, chlorophyll-a; read-out: IC50 Amphora sp.
quantityMeasured: log10(IC50) (log10 of the value in µM)
Hi team, quick reminder: these entries are log10 of IC50 (µM).

# annotated cases, reported log10(IC50) shown
>>> numericreadout("CCCCCCC[P+](c1ccccc1)(c1ccccc1)c1ccccc1 [Compound 8, heptyl triphenylphosphonium bromide]")
1.58
>>> numericreadout("CCCCCCCCCC[P+](c1ccccc1)(c1ccccc1)c1ccccc1 [Compound 10]")
0.51
>>> numericreadout("CCCCCCCCC[P+](c1ccccc1)(c1ccccc1)c1ccccc1 [Compound 9]")
0.79
>>> numericreadout("CCCCN[P+](c1ccccc1)(c1ccccc1)c1ccccc1 [Compound 5]")
1.63
>>> numericreadout("CCCCCCCCCCCCCCCCCCC[P+](c1ccccc1)(c1ccccc1)c1ccccc1 [Compound 18]")
0.53

If you can, please state the reported log10(IC50) value of CCCCCCCCCCCCCCC[P+](c1ccccc1)(c1ccccc1)c1ccccc1 [Compound 15] .
0.49

For the molecule CCCCCCCCCCCCCC[P+](c1ccccc1)(c1ccccc1)c1ccccc1 [Compound 14] , what log10(IC50) is on record?
0.32

Endpoint output: log10(IC50) of O=C(O)CCCCCCCCCC[P+](c1ccccc1)(c1ccccc1)c1ccccc1 [Compound 19] . Value?
1.88

// log10(IC50) lookup, key: CCCCCCCCCCCCC[P+](c1ccccc1)(c1ccccc1)c1ccccc1 [Compound 13]
0.65

What does the data say about its log10(IC50)? Entry: BrC(Br)[P+](c1ccccc1)(c1ccccc1)c1ccccc1 [Compound 1]
1.29
